Numbers sourced from PubChem BioAssay.

Tested on: Chordin-like protein 2 (CHRDL2)
protocol: CHRDL2 small-molecule binders, primary screen, biochemical, small-molecule microarray, 635 nm fluorescence (AID 1126);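 further: printed compound slides probed with Chrdl2 protein at 4 µg/mL for 1 h at 4 C; score merges 667 nm emission intensity with signal to noise over three replicate slides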
protocol.conditions: small-molecule microarray binding, fluorescence 635 nm; higher = more signal
reported.endpoint: composite z-score

{"molecule": "CCCCCCc1nc(-c2ccc(OC)nc2)c(C)c2c1[Si](C(C)C)(C(C)C)OC2", "reported.endpoint": "composite z-score", "recorded.number": 0.492}
{"molecule": "COCCOC(=O)N1C(=O)[C@@]2(c3cc(C#CCNC(N)=O)ccc31)[C@H](C(N)=O)[C@H]1C(=O)O[C@H](c3ccccc3)[C@H](c3ccccc3)N1[C@@H]2c1ccc(O)cc1", "reported.endpoint": "composite z-score", "recorded.number": 0.267}
{"molecule": "COc1ccc([Si](C)(C)[C@H]2[C@H](CC(=O)N(CCO)Cc3ccccc3)O[C@@]3(C(=O)N(c4ccccc4)c4ccccc43)[C@@H]2C)cc1", "reported.endpoint": "composite z-score", "recorded.number": 1.19}
{"molecule": "C=C[C@@H](CO)NS(=O)(=O)c1ccc(Br)cc1", "reported.endpoint": "composite z-score", "recorded.number": 0.222}
{"molecule": "COc1cc(CO)cc(I)c1O[C@H]1C=C(C(=O)NCCO)C[C@@H](N(CCN2CCOCC2)C(=O)C2CCCO2)[C@@H]1O (some centres not stated)", "reported.endpoint": "composite z-score", "recorded.number": 0.365}
{"molecule": "COCCOC(=O)N1C(=O)[C@@]2(c3cc(C#CC4(O)CCCCCC4)ccc31)[C@H](C(N)=O)[C@H]1C(=O)O[C@H](c3ccccc3)[C@H](c3ccccc3)N1[C@@H]2c1ccc(OCCO)cc1", "reported.endpoint": "composite z-score", "recorded.number": -0.0029}
{"molecule": "[N-]=[N+]=NCc1ccccc1[C@H]1OC(c2ccc(OCCCO)cc2)=N[C@@]1(CCS(=O)(=O)c1ccccc1)C(=O)O", "reported.endpoint": "composite z-score", "recorded.number": -0.692}
{"molecule": "COc1ccc([Si](C)(C)[C@H]2[C@H](CC(=O)N(CCO)Cc3ccccc3)O[C@@]3(C(=O)N(Cc4ccc(N5C(=O)c6cccc7cccc5c67)cc4)c4ccccc43)[C@@H]2C)cc1", "reported.endpoint": "composite z-score", "recorded.number": 0.71}
{"molecule": "COC(=O)[C@H](Cc1ccccc1)N1CC(C)(OC)O[C@@H](Cc2ccccc2)[C@H]1/C=C/C1CC1 (some centres not stated)", "reported.endpoint": "composite z-score", "recorded.number": -0.359}
{"molecule": "COC(=O)C1(CC(C)C)C=C2C(=C(C)C(=O)C2C)CN1 (configuration not stated)", "reported.endpoint": "composite z-score", "recorded.number": 0.0633}
{"molecule": "CCOC(=O)C[C@H]1[C@H](OC(=O)Cc2ccc3c(c2)OCO3)[C@@H](NC(=O)CC(C)C)c2cc(OCCCO)ccc2N1C(=O)c1ccc2ccccc2n1", "reported.endpoint": "composite z-score", "recorded.number": 0.386}
{"molecule": "NCCCCCCNC(=O)[C@@H]1C[C@@H]2C(=O)NCC(=O)N2[C@@H]1c1cccc(OCCO)c1", "reported.endpoint": "composite z-score", "recorded.number": 1.18}
{"molecule": "COc1ccc(C(=O)Nc2ccc(CN3C(=O)[C@@]4(O[C@@H](CC(=O)N(CCO)Cc5ccccc5)[C@H]([Si](C)(C)c5ccc(OC)cc5)[C@H]4C)c4ccccc43)cc2)cc1", "reported.endpoint": "composite z-score", "recorded.number": 1.01}
{"molecule": "O=C1OC[C@@H](c2ccccc2)n2cc(/C=C/c3ccccc3)cc21", "reported.endpoint": "composite z-score", "recorded.number": -0.701}
{"molecule": "O=C(NCC(F)(F)F)[C@@H]1c2ccccc2C(=O)N(Cc2cc(C(F)(F)F)cc(C(F)(F)F)c2)[C@H]1c1ccc(CO)cc1", "reported.endpoint": "composite z-score", "recorded.number": 0.0632}
{"molecule": "CC(C)[Si]1(C(C)C)OCc2cc(-c3ccc(-c4ccc(Cl)c(Cl)c4)o3)nc(-c3ccc(Oc4ccccc4)cc3)c21", "reported.endpoint": "composite z-score", "recorded.number": -1.24}
{"molecule": "CC(C)C[C@@H]1NC(=O)[C@H]2C[C@@H](C(=O)O)[C@@H](c3cccc(OCCO)c3)N2C1=O", "reported.endpoint": "composite z-score", "recorded.number": 1.12}
{"molecule": "CN(C)CCCCCCNC(=O)[C@@H]1C[C@@H]2C(=O)N[C@@H](CCCC[N+](C)(C)C)C(=O)N2[C@@H]1c1cccc(OCCO)c1", "reported.endpoint": "composite z-score", "recorded.number": -0.0783}
{"molecule": "COC(=O)C[C@H]1O[C@]2(C(=O)N(C)c3ccccc32)[C@@H](C)[C@@H]1[Si](C)(C)c1ccccc1", "reported.endpoint": "composite z-score", "recorded.number": 0.816}
{"molecule": "C=C(COC)C(=O)CC[C@H](OC(C)=O)c1ccc(CO)o1", "reported.endpoint": "composite z-score", "recorded.number": 0.268}
{"molecule": "O=C1OCCC/C=C\\[C@H]2OC34C=CCN(Cc5ccccc5)C(=O)[C@H]3N(CCO)C(=O)[C@@H]4C12 (some centres not stated)", "reported.endpoint": "composite z-score", "recorded.number": -0.32}
{"molecule": "Cc1cccc([C@H]2C[C@H]3C(Br)=C[C@@]2(CO)C(=O)[C@]32CO2)c1", "reported.endpoint": "composite z-score", "recorded.number": -0.15}
